Source of measurements: ChEMBL document CHEMBL1150387

# MEASURED_ON: Mitogen-activated protein kinase 1 (Homo sapiens)
# PROTOCOL_DETAILS: Inhibition of ERK2 at 10 uM by HTRF assay relative to control
MEASURE: inhibition (%)
Your answer is read as %, so omit the unit and give the number.

Challenge: Query for Mitogen-activated protein kinase 1 (Homo sapiens): what inhibition does the record show for CN(C)CC(C)(C)CNC(=O)C1CCN(c2cc(N3CCOCC3)nc(N)n2)CC1 ?
Response given: 0

Challenge: Query for Mitogen-activated protein kinase 1 (Homo sapiens): what inhibition does the record show for COc1ccc(NC(=O)Cc2ccc(Nc3cc(N(C)c4cccc(C)c4)ncn3)cc2)cn1 ?
Response given: 4

Challenge: Query for Mitogen-activated protein kinase 1 (Homo sapiens): what inhibition does the record show for COc1cccc(Nc2cc(N3CCC[C@H]3C(=O)NCCN3CCCCC3)nc(N)n2)c1 ?
Response given: 0

Challenge: Query for Mitogen-activated protein kinase 1 (Homo sapiens): what inhibition does the record show for Nc1nc(N2CCOCC2)cc(N2CCC(C(=O)NCCc3ccc(O)cc3)CC2)n1 ?
Response given: 11

Challenge: Query for Mitogen-activated protein kinase 1 (Homo sapiens): what inhibition does the record show for CN(C)CC(C)(C)CNC(=O)c1cccc(Nc2nccc(Nc3ccc4ncsc4c3)n2)c1 ?
Response given: 13

Challenge: Query for Mitogen-activated protein kinase 1 (Homo sapiens): what inhibition does the record show for Cc1cccc(Nc2nccc(Nc3cccc(C(=O)NCc4ccc(N(C)C)cc4)c3)n2)c1 ?
Response given: 0

Challenge: Query for Mitogen-activated protein kinase 1 (Homo sapiens): what inhibition does the record show for COC(=O)C(CO)NC(=O)[C@@H]1CCCN1c1nccc(Oc2cccc(C)c2)n1 (stereo not given in full) ?
Response given: 1

Challenge: Query for Mitogen-activated protein kinase 1 (Homo sapiens): what inhibition does the record show for O=C(NC[C@@H]1CCCO1)c1cccc(Nc2nccc(Nc3ccc4ncsc4c3)n2)c1 ?
Response given: 0

Challenge: Query for Mitogen-activated protein kinase 1 (Homo sapiens): what inhibition does the record show for O=C(C1CCN(c2nccc(Nc3ccccc3)n2)CC1)N1CC[C@@H](O)C1 ?
Response given: 0

Challenge: Query for Mitogen-activated protein kinase 1 (Homo sapiens): what inhibition does the record show for Nc1nc(N2CCOCC2)cc(N2CCC(C(=O)NCc3cccs3)CC2)n1 ?
Response given: 0

---

# MEASURED_ON: Epidermal growth factor receptor (Homo sapiens) (UniProt P00533)
# Sequence (P00533 whole entry): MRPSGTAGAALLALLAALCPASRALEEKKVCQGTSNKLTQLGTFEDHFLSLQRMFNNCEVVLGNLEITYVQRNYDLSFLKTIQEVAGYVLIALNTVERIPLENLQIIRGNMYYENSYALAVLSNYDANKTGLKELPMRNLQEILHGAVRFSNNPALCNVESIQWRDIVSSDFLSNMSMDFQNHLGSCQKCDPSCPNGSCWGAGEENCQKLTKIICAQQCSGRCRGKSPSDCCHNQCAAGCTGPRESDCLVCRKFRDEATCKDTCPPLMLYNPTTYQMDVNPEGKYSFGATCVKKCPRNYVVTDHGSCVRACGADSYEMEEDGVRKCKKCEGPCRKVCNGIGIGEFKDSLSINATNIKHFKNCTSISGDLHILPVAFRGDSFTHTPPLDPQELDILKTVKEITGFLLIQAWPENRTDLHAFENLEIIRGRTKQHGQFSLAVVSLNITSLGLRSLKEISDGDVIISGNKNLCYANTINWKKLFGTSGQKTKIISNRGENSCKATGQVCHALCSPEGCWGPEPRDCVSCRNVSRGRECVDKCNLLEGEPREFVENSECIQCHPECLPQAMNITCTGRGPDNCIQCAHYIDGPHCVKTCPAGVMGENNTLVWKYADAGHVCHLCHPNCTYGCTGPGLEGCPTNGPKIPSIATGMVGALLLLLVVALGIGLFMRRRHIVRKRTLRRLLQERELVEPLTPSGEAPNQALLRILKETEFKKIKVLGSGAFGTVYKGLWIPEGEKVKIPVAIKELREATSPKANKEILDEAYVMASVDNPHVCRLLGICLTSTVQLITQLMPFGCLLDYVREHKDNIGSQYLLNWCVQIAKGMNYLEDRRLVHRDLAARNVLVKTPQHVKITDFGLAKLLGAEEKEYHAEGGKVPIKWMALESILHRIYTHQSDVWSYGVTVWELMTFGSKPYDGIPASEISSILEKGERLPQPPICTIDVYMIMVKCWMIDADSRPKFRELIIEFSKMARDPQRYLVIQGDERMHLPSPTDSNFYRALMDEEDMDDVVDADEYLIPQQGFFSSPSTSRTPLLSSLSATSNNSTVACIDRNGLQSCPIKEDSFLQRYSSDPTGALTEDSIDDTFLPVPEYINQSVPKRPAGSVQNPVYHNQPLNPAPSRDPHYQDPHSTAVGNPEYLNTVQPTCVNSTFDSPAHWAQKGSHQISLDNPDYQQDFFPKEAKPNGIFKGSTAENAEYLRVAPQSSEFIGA
# PROTOCOL_DETAILS: Inhibition of EGFR at 10 uM by HTRF assay relative to control
For each record, write down the corresponding inhibition.
Your answer is read as %, so omit the unit and give the number.

Challenge: Query for Epidermal growth factor receptor (Homo sapiens) (UniProt P00533): what inhibition does the record show for CN(CCc1ccccn1)C(=O)[C@@H]1CCCN1c1nccc(Nc2ccccc2)n1 ?
Response given: 0

Challenge: Query for Epidermal growth factor receptor (Homo sapiens) (UniProt P00533): what inhibition does the record show for Cc1cccc(N(C)c2cc(Nc3cccc(C(=O)N4CCCC5CCCCC54)c3)ncn2)c1 (configuration not stated) ?
Response given: 84

Challenge: Query for Epidermal growth factor receptor (Homo sapiens) (UniProt P00533): what inhibition does the record show for CN(C)CC(C)(C)CNC(=O)[C@@H]1CCCN1c1nccc(Nc2ccccc2)n1 ?
Response given: 0

Challenge: Query for Epidermal growth factor receptor (Homo sapiens) (UniProt P00533): what inhibition does the record show for CN(C)CC(C)(C)CNC(=O)c1cccc(Nc2nccc(Nc3ccc4ncsc4c3)n2)c1 ?
Response given: 16

Challenge: Query for Epidermal growth factor receptor (Homo sapiens) (UniProt P00533): what inhibition does the record show for COc1cccc(Nc2cc(Nc3cccc(C(=O)N(C)CCc4ccccn4)c3)nc(N)n2)c1 ?
Response given: 36

Challenge: Query for Epidermal growth factor receptor (Homo sapiens) (UniProt P00533): what inhibition does the record show for Cc1cccc(N(C)c2cc(Nc3cccc(C(=O)N(CC(C)C)CC(C)C)c3)ncn2)c1 ?
Response given: 84

Challenge: Query for Epidermal growth factor receptor (Homo sapiens) (UniProt P00533): what inhibition does the record show for Cc1cccc(Nc2nccc(Nc3cccc(C(=O)NCc4ccc(N(C)C)cc4)c3)n2)c1 ?
Response given: 0

Challenge: Query for Epidermal growth factor receptor (Homo sapiens) (UniProt P00533): what inhibition does the record show for CN(C)CC(C)(C)CNC(=O)C1CCN(c2cc(N3CCOCC3)nc(N)n2)CC1 ?
Response given: 0

Challenge: Query for Epidermal growth factor receptor (Homo sapiens) (UniProt P00533): what inhibition does the record show for Nc1nc(Nc2ccc(C(=O)NCCc3ccncc3)cc2)cc(N2CCOCC2)n1 ?
Response given: 0

Challenge: Query for Epidermal growth factor receptor (Homo sapiens) (UniProt P00533): what inhibition does the record show for Cc1cccc(CN2CCN(c3cc(N(C)c4cccc(C)c4)ncn3)CC2)c1 ?
Response given: 0

Challenge: Query for Epidermal growth factor receptor (Homo sapiens) (UniProt P00533): what inhibition does the record show for COC[C@@H]1CCCN1C(=O)[C@@H]1CCCN1c1nccc(Nc2ccccc2)n1 ?
Response given: 0

Challenge: Query for Epidermal growth factor receptor (Homo sapiens) (UniProt P00533): what inhibition does the record show for Cc1cccc(N(C)c2cc(Nc3ccc(CC(=O)Nc4ccc5ncsc5c4)cc3)ncn2)c1 ?
Response given: 87

Challenge: Query for Epidermal growth factor receptor (Homo sapiens) (UniProt P00533): what inhibition does the record show for COC[C@@H]1CCCN1C(=O)[C@@H]1CCCN1c1cc(Nc2cccc(OC)c2)nc(N)n1 ?
Response given: 2

Challenge: Query for Epidermal growth factor receptor (Homo sapiens) (UniProt P00533): what inhibition does the record show for Cc1cc(C(=O)N2CCN(c3ncnc4c3CN(Cc3ccccc3)CC4)CC2)c(C)n1C ?
Response given: 0

Challenge: Query for Epidermal growth factor receptor (Homo sapiens) (UniProt P00533): what inhibition does the record show for Cc1cccc(N(C)c2cc(Nc3cccc(C(=O)NCc4ccncc4)c3)ncn2)c1 ?
Response given: 100

Challenge: Query for Epidermal growth factor receptor (Homo sapiens) (UniProt P00533): what inhibition does the record show for Nc1nc(Nc2ccccc2)cc(N2CCC(C(=O)NCCc3ccccn3)CC2)n1 ?
Response given: 0

Challenge: Query for Epidermal growth factor receptor (Homo sapiens) (UniProt P00533): what inhibition does the record show for O=C(COc1ccccc1)N1CCN(c2nccc(Nc3ccc4ncsc4c3)n2)CC1 ?
Response given: 81

Challenge: Query for Epidermal growth factor receptor (Homo sapiens) (UniProt P00533): what inhibition does the record show for O=C(NCc1ccncc1)c1cccc(Nc2cc(Nc3cccc(Br)c3)ncn2)c1 ?
Response given: 100

Challenge: Query for Epidermal growth factor receptor (Homo sapiens) (UniProt P00533): what inhibition does the record show for COC[C@@H]1CCCN1C(=O)C1CCCN1c1cc(Nc2cccc(Br)c2)ncn1 (some centres not stated) ?
Response given: 0

Challenge: Query for Epidermal growth factor receptor (Homo sapiens) (UniProt P00533): what inhibition does the record show for Cc1cccc(Nc2nccc(Nc3cccc(C(=O)N(C)CCc4ccccn4)c3)n2)c1 ?
Response given: 8

Challenge: Query for Epidermal growth factor receptor (Homo sapiens) (UniProt P00533): what inhibition does the record show for COC(=O)C(CO)NC(=O)[C@@H]1CCCN1c1nccc(Oc2cccc(C)c2)n1 (some centres not stated) ?
Response given: 0

Challenge: Query for Epidermal growth factor receptor (Homo sapiens) (UniProt P00533): what inhibition does the record show for COc1cccc(Nc2cc(N3CCC[C@H]3C(=O)NCCN3CCCCC3)nc(N)n2)c1 ?
Response given: 0

---

# MEASURED_ON: Tyrosine-protein kinase Fes/Fps (Homo sapiens) (UniProt P07332)
# Sequence (P07332 whole entry): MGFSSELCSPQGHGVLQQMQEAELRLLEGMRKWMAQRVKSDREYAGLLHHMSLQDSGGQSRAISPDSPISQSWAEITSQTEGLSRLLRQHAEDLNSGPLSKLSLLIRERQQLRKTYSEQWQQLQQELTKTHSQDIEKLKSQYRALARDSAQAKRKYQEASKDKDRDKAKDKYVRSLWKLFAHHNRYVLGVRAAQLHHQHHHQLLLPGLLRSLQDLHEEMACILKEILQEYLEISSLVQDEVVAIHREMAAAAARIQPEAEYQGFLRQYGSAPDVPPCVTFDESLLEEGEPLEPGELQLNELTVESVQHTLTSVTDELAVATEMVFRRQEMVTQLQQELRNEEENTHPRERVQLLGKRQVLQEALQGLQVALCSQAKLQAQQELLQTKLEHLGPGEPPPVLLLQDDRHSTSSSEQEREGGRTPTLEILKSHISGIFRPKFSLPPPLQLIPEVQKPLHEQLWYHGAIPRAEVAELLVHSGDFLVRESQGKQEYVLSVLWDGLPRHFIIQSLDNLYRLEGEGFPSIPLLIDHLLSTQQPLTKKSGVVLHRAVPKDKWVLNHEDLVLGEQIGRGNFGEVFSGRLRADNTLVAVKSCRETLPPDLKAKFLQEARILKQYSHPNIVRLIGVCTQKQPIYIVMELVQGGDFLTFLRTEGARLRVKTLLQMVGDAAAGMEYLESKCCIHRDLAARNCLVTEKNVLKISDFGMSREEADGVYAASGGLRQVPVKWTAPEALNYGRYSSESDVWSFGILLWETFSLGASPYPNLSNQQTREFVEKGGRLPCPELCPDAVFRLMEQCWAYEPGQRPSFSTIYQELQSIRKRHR
# PROTOCOL_DETAILS: Inhibition of FES at 10 uM by HTRF assay relative to control
For each record, write down the corresponding inhibition.
Your answer is read as %, so omit the unit and give the number.

Challenge: Query for Tyrosine-protein kinase Fes/Fps (Homo sapiens) (UniProt P07332): what inhibition does the record show for COc1ccc(NC(=O)Cc2ccc(Nc3cc(N(C)c4cccc(C)c4)ncn3)cc2)cn1 ?
Response given: 0

Challenge: Query for Tyrosine-protein kinase Fes/Fps (Homo sapiens) (UniProt P07332): what inhibition does the record show for Cc1cccc(N(C)c2cc(Nc3ccc(CC(=O)Nc4ccc5ncsc5c4)cc3)ncn2)c1 ?
Response given: 24

Challenge: Query for Tyrosine-protein kinase Fes/Fps (Homo sapiens) (UniProt P07332): what inhibition does the record show for CN(C)CC(C)(C)CNC(=O)c1cccc(Nc2nccc(Nc3ccc4ncsc4c3)n2)c1 ?
Response given: 97

Challenge: Query for Tyrosine-protein kinase Fes/Fps (Homo sapiens) (UniProt P07332): what inhibition does the record show for O=C(c1nc(SCc2ccc(Cl)cc2)n2ccccc12)N1CCN(c2ncnc3c2CN(Cc2ccccc2)CC3)CC1 ?
Response given: 0

Challenge: Query for Tyrosine-protein kinase Fes/Fps (Homo sapiens) (UniProt P07332): what inhibition does the record show for CN(C)CC(C)(C)CNC(=O)C1CCN(c2cc(N3CCOCC3)nc(N)n2)CC1 ?
Response given: 3

Challenge: Query for Tyrosine-protein kinase Fes/Fps (Homo sapiens) (UniProt P07332): what inhibition does the record show for Cc1cccc(N(C)c2cc(Nc3cccc(C(=O)NCCCn4ccnc4)c3)ncn2)c1 ?
Response given: 22

Challenge: Query for Tyrosine-protein kinase Fes/Fps (Homo sapiens) (UniProt P07332): what inhibition does the record show for Nc1nc(Nc2ccc3ncsc3c2)cc(N2CCC[C@H]2C(=O)NCCc2cccc(I)c2)n1 ?
Response given: 8

Challenge: Query for Tyrosine-protein kinase Fes/Fps (Homo sapiens) (UniProt P07332): what inhibition does the record show for COc1cccc(Nc2cc(N3CCC[C@H]3C(=O)NCCN3CCCCC3)nc(N)n2)c1 ?
Response given: 4

Challenge: Query for Tyrosine-protein kinase Fes/Fps (Homo sapiens) (UniProt P07332): what inhibition does the record show for Cc1cccc(N(C)c2cc(Nc3cccc(C(=O)N(C)CCc4ccccn4)c3)ncn2)c1 ?
Response given: 15
